# Tested on: ACHN
# Assay explanation: Antiproliferative activity against human ACHN cells
# Assay type: functional
Observable: GI50

Below, 5 molecules whose answers are already recorded.
1) O=C(CCC1=CCN(CCc2cccc(C(F)(F)F)c2)C1=O)NO; 1.17 µM
2) COc1cccc(CCN2CC=C(CCC(=O)NO)C2=O)c1; 2.48 µM
3) COc1ccccc1CN1CC=C(CCC(=O)NO)C1=O; > 10 µM
4) COc1ccc(CCCN2CC=C(CCC(=O)NO)C2=O)cc1; 4.75 µM
5) COc1cccc(CN2CC=C(CCC(=O)NO)C2=O)c1; 4.43 µM

Here is another molecule to look at.
q: Looking for the measured GI50 of "O=C(CCC1=CCN(Cc2ccc(C(F)(F)F)cc2)C1=O)NO" , can you help?
a: 4.29 µM
